# credit: paper PMC10397247

Target: T1, 4H775-AA
T1 chain: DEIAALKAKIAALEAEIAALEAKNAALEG
Assay: two-hybrid library CCmax;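 note: natural log of median RNA to DNA barcode read ratio; higher means stronger binding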
Settings: mean of both orientations
PROPERTY MEASURED: interaction score

>>> test_result("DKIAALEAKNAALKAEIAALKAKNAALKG [4H2512-AA]")
-1.11
>>> test_result("DKNAALKAKIAALKAKIAALEAENAALKG [4H3940-AA]")
-0.249
>>> test_result("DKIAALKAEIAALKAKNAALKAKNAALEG [4H2687-AA]")
-0.777
>>> test_result("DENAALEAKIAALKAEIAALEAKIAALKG [4H1350-AA]")
1.63
>>> test_result("DEIAALEAKNAALEAEIAALEAKIAALKG [4H390-AA]")
-0.316
>>> test_result("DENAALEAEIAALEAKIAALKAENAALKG [4H1068-AA]")
-0.238
>>> test_result("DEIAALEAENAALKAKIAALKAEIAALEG [4H233-AA]")
-1.43
>>> test_result("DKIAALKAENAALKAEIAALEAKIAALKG [4H2758-AA]")
-0.652
>>> test_result("DKIAALKAKIAALEAKNAALKAEIAALEG [4H2873-AA]")
-0.187
>>> test_result("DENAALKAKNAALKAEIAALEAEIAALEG [4H1985-AA]")
-1.28
>>> test_result("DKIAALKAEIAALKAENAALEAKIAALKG [4H2646-AA]")
-0.478
>>> test_result("DKNAALEAKIAALKAENAALEAEIAALEG [4H3409-AA]")
-1.25
